Where do the numbers come from? From ChEMBL document CHEMBL5096178.

assay: Displacement of [3H]-(+)-pentazocine from Sigma1 receptor derived from pig brain assessed as inhibition constant measured after 120 mins by scintillation counter analysis; format: tissue-based, Sus scrofa
Quantity name: Ki (nM)

A: CC1(C)CCc2cc(CCCNCc3ccccc3)c(O)cc2O1
B: COCOc1cc2c(cc1CCCNCc1ccccc1)CCC(C)(C)O2
Could you kindly indicate whether A or B has the higher Ki value? Provide the label of your selected option as the answer.
A

====

test: Selectivity index, ratio of IC50 for rat L6 cells to IC50 for erythrocytic stage Plasmodium falciparum NF54; type: toxicity; settings: read-out: Ratio IC50
Measured selectivity ratio, listed per entry for reference.
Reply with the value as a number alone.

Example results:
CC1(C)CCc2cc(CCCNCc3ccccc3)c(O)cc2O1	24
CC1(C)C=Cc2cc(CNCc3ccccc3)c(O)cc2O1	356
CC1(C)C=Cc2cc(CNCCCCc3ccccc3)c(O)cc2O1	241
CC1(C)CCc2cc(CNCCc3ccccc3)c(O)cc2O1	531
CC1(C)CCc2cc(C(O)CNCc3ccccc3)c(O)cc2O1 (stereo not drawn)	460
CC1(C)CCc2cc(CNCc3ccccc3)c(O)cc2O1	222
CC1(C)CCc2c(ccc(CNCCCCc3ccccc3)c2O)O1	83

Could you now look at the following molecule, please?
If you can, please state the reported selectivity ratio value of CC1(C)CCc2cc(C(O)CNCCCc3ccccc3)c(O)cc2O1 (stereo not drawn) .
1470

====

test: Selectivity index, ratio of IC50 for rat L6 cells to IC50 for Leishmania donovani MHOM/ET/67/L82 axenic amastigote; format: toxicity; details: read-out: Ratio IC50
Quantity name: selectivity ratio
Reply with the value as a number alone.

CC1(C)C=Cc2cc(CNCCc3ccccc3)c(O)cc2O1	0.4
CC1(C)CCc2c(ccc(CNCCCc3ccccc3)c2O)O1	0.5
CC1(C)CCc2cc(CNCc3ccccc3)c3c(c2O1)CCC(C)(C)O3	0.4
CC1(C)CCc2cc(CCCNCc3ccccc3)c(O)cc2O1	2
CC1(C)CCc2cc(CNCCCCc3ccccc3)c3c(c2O1)CCC(C)(C)O3	0.7

If you can, please state the reported selectivity ratio value of CC1(C)CCc2cc(C(O)CNCCCc3ccccc3)c(O)cc2O1 (configuration not stated) .
0.7

Can you handle "CC1(C)C=Cc2cc(CNCCCCc3ccccc3)c(O)cc2O1" next?
0.8

Can you handle CC1(C)CCc2cc(C(O)CNCc3ccccc3)c(O)cc2O1 (configuration not stated) next?
0.9

Can you handle "CC1(C)C=Cc2cc(CNCCCc3ccccc3)c(O)cc2O1" next?
0.7

Can you handle "CC1(C)CCc2c(ccc(CNCc3ccccc3)c2O)O1" next?
1

Can you handle "CC1(C)C=Cc2cc(CNCc3ccccc3)c(O)cc2O1" next?
0.9

Can you handle "CC1(C)CCc2c(ccc(CNCCc3ccccc3)c2O)O1" next?
0.3

====

Measured selectivity ratio, listed per entry for reference.
assay: Selectivity index, ratio of IC50 for rat L6 cells to IC50 for Leishmania donovani MHOM/ET/67/L82 axenic amastigote; assay type: toxicity; conditions: read-out: Ratio IC50
Reply with the value as a number alone.

Example results:
CC1(C)CCc2cc(CNCCCc3ccccc3)c3c(c2O1)CCC(C)(C)O3	0.2
CC1(C)CCc2cc(CNCCc3ccccc3)c3c(c2O1)CCC(C)(C)O3	0.3
CC1(C)CCc2cc(CNCCCCc3ccccc3)c(O)cc2O1	0.1
CC1(C)CCc2cc(CNCCCc3ccccc3)c(O)cc2O1	0.05

Could you now look at the following compound, please?
If you can, please state the reported selectivity ratio value of "CC1(C)CCc2c(ccc(CNCCCCc3ccccc3)c2O)O1" .
0.4
